B1: TPR 5TU (parent)
chain: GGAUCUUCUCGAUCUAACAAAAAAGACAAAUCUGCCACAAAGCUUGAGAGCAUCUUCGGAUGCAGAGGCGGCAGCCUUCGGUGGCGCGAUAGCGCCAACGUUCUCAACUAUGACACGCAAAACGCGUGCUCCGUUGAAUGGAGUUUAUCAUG

# Variants of: B1
# protocol-text: polymerase ribozyme fitness, log enrichment relative to wild type (log ratio); higher = more active; in vitro selection for triplet polymerase activity
Fewer inactive variants are shown than the library holds.
Tag: fulfilled if measured polymerase ribozyme fitness (log ratio) is not below -3, not fulfilled if it is.

Input line: Hi, just wondering whether A24U A41G U53G G124C C131U shows polymerase ribozyme fitness (log ratio) of -3 or higher.
Output line: fulfilled

Input line: Hi, just wondering whether U9G G48C G62A U82A G84U shows polymerase ribozyme fitness (log ratio) of -3 or higher.
Output line: not fulfilled

Input line: Hi, just wondering whether G50A C54U C85U C93U G94U G117A shows polymerase ribozyme fitness (log ratio) of -3 or higher.
Output line: not fulfilled

***
Input line: Hi, just wondering whether C43U G67U shows polymerase ribozyme fitness (log ratio) of -3 or higher.
Output line: not fulfilled
